Target entity: UniProt:Q9H2G2
Sequence (Q9H2G2 whole entry): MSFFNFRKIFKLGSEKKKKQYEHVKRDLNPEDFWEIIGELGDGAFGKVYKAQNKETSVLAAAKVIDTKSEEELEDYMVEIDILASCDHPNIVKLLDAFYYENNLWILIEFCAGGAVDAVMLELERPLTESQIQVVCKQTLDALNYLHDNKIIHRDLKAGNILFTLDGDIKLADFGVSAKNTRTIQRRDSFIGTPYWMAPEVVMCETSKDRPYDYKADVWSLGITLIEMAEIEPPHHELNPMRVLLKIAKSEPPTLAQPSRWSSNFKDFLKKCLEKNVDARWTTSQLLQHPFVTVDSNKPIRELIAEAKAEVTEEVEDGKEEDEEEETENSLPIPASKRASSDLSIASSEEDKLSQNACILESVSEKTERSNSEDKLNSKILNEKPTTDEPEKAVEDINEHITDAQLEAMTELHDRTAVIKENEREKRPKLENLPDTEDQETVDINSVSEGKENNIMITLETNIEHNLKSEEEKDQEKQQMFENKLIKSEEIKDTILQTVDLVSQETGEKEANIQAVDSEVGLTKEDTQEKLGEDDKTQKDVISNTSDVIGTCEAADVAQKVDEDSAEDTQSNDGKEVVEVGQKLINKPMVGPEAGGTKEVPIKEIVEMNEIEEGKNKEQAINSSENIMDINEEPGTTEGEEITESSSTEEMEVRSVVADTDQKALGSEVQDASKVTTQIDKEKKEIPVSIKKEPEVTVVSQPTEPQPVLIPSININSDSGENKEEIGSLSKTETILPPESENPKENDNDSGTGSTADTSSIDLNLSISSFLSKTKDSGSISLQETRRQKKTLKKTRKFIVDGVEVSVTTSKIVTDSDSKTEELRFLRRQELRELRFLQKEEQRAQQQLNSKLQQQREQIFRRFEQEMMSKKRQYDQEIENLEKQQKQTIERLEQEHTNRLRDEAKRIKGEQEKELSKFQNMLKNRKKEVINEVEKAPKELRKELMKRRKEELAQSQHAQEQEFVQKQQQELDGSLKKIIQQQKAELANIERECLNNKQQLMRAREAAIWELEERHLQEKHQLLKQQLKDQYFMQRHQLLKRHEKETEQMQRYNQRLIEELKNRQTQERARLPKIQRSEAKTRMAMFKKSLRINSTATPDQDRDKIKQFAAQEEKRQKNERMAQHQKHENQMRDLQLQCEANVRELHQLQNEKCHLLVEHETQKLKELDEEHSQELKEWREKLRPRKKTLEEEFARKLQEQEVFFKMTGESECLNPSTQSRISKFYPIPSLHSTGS
Assay notes: nanoBRET off-target validation

| Molecule | EC50 |
| --- | --- |
| CCSc1nc(NC)c2c(-c3cccc(NC(=O)Nc4cc(C(C)(C)C)nn4-c4ccc(C)cc4)c3)c[nH]c2n1 [Compound 32] | > 20 µM |

* * *

Target entity: ~100 representative kinases (Homo sapiens, UniProt Q99683)
Construct: Recombinant protein kinase domains with a concentration of 2 μM
Sequence (Q99683 1-1374): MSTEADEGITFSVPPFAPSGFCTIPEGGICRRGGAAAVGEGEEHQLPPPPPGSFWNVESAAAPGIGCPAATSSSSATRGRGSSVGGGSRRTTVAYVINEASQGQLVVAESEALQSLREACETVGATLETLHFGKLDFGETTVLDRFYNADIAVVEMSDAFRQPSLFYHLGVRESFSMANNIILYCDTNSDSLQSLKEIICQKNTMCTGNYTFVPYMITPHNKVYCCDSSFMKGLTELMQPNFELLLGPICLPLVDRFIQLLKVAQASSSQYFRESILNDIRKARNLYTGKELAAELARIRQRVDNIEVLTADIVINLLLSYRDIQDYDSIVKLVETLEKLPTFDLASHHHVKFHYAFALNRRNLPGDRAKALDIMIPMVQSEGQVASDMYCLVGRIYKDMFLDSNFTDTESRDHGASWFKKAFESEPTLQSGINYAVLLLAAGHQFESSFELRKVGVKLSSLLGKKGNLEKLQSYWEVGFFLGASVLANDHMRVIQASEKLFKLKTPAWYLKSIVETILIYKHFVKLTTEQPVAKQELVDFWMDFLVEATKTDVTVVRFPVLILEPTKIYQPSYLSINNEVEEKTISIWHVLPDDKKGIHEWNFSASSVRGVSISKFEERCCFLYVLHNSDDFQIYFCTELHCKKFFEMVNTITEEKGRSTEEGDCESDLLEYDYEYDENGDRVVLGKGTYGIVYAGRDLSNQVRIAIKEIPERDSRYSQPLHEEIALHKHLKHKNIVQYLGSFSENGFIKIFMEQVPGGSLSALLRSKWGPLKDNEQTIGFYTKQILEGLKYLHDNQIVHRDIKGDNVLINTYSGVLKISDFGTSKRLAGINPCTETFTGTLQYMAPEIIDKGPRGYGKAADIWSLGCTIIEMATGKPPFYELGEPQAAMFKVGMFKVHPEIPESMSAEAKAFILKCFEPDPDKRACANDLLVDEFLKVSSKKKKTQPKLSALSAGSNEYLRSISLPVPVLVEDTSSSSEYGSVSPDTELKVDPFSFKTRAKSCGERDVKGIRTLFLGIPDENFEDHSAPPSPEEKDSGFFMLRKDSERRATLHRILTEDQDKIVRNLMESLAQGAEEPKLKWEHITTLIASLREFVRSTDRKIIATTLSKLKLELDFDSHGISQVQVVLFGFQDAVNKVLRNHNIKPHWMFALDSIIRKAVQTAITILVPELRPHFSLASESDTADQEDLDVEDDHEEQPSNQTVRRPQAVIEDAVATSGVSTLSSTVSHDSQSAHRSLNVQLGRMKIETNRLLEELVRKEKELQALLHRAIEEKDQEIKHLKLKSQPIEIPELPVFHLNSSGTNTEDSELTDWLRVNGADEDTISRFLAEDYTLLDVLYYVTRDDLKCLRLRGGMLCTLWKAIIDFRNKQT
Assay notes: DSF 100 kinase selectivity screen;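 note: compound tested at 20 µM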
Assay type: binding
Test parameters: protein MAP3K5; average of three replicates
Parameter: dTm. Scope: all listed entries.

| Compound | Target entity | dTm |
| --- | --- | --- |
| Cc1ccc(C(=O)Nc2ccc(CN3CCN(C)CC3)c(C(F)(F)F)c2)cc1C#Cc1cnc2[nH]ncc2c1 [GZD-824, reference compound] | ~100 representative kinases (Homo sapiens, UniProt Q99683) | 5.05 K |
| O=C(Nc1ccccc1)C1(C(=O)Nc2cccc(-c3c[nH]c4ncnc(N5CCOCC5)c34)c2)CC1 | ~100 representative kinases (Homo sapiens, UniProt Q99683) | 2.42 K |
| Cc1ccc(-n2nc(C(C)(C)C)cc2NC(=O)Nc2cccc(-c3c[nH]c4nc(Cl)nc(N5CCOCC5)c34)c2)cc1 | ~100 representative kinases (Homo sapiens, UniProt Q99683) | 1.60 K |
| CC(=O)N1CCN(c2nc(Cl)nc3[nH]cc(-c4cccc(NC(=O)Nc5cc(C(C)(C)C)nn5-c5ccc(C)cc5)c4)c23)CC1 | ~100 representative kinases (Homo sapiens, UniProt Q99683) | 1.23 K |
| CCc1ccc(NC(=O)C2(C(=O)Nc3cccc(-c4c[nH]c5ncnc(N6CCOCC6)c45)c3)CC2)cc1 | ~100 representative kinases (Homo sapiens, UniProt Q99683) | 1.27 K |
| O=C(Nc1ccc(Cl)cc1)C1(C(=O)Nc2cccc(-c3c[nH]c4ncnc(N5CCOCC5)c34)c2)CC1 | ~100 representative kinases (Homo sapiens, UniProt Q99683) | 4.01 K |
| COc1cc(S(C)(=O)=O)ccc1Nc1nc(N(C)C)c2c(Cl)c[nH]c2n1 | ~100 representative kinases (Homo sapiens, UniProt Q99683) | 1.09 K |

* * *

Target entity: ~100 representative kinases (Homo sapiens, UniProt P24941)
Construct: Recombinant protein kinase domains with a concentration of 2 μM
Assay notes: DSF 100 kinase selectivity screen;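 note: compound tested at 20 µM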
Type: binding
Test parameters: Protein CDK2; average of three replicates
# strict inequality: dTm < 4 K yields yes, everything else yields no

| Compound | Category label |
| --- | --- |
| Cc1cc(F)ccc1NC(=O)C1(C(=O)Nc2cccc(-c3c[nH]c4ncnc(N5CCOCC5)c34)c2)CC1 | yes |
| O=C(Nc1cc(F)cc(Br)c1)C1(C(=O)Nc2cccc(-c3c[nH]c4ncnc(N5CCOCC5)c34)c2)CC1 | no |
| O=C(Nc1cccc(-c2c[nH]c3ncnc(N4CCOCC4)c23)c1)C1(C(=O)Nc2ccc(F)c(F)c2)CC1 | no |
| Cc1ccc(NC(=O)C2(C(=O)Nc3cccc(-c4c[nH]c5ncnc(N6CCOCC6)c45)c3)CC2)cc1 | no |
| Cc1ccc(C(=O)Nc2ccc(CN3CCN(C)CC3)c(C(F)(F)F)c2)cc1C#Cc1cnc2cccnn12 [Ponatinib, reference compound] | no |
| O=C(Nc1cccc(-c2c[nH]c3ncnc(N4CCOCC4)c23)c1)c1cccn(-c2ccc(F)cc2)c1=O | no |
| COc1cc(S(C)(=O)=O)ccc1Nc1nc(N(C)C)c2c(Cl)c[nH]c2n1 | yes |

* * *

Target entity: ~100 representative kinases (Homo sapiens, UniProt Q9UPE1)
Construct: Recombinant protein kinase domains with a concentration of 2 μM
Sequence (Q9UPE1 whole entry, the tested form may be a part): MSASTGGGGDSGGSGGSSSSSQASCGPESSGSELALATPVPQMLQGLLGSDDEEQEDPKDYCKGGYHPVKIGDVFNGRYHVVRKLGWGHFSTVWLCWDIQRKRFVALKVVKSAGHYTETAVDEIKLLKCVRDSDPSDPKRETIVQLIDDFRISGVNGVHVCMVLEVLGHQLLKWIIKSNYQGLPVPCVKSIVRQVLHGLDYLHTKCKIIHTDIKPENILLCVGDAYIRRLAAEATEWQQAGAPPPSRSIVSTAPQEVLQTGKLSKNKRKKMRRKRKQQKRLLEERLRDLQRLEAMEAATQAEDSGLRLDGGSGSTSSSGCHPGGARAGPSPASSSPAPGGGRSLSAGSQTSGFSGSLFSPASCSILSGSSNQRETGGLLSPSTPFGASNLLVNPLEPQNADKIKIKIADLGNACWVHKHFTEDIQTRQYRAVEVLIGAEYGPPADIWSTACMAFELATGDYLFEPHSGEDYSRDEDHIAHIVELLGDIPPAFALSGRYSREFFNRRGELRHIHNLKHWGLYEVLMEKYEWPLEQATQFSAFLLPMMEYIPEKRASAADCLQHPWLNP
Assay notes: DSF 100 kinase selectivity screen;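 note: compound tested at 20 µM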
Assay type: binding
Test parameters: Protein SRPK3; DSF; average of three replicates
Method: Recombinant protein kinase domains with a concentration of 2 μM were mixed with a 20 μM compound solution in dimethyl sulfoxide (DMSO), 20 mM Hepes (pH 7.5), and 500 mM NaCl. SYPRO Orange (5000×, Invitrogen) was added as a fluorescence probe (1μl/ml). Subsequently, temperature-dependent protein unfolding profiles were measured using the QuantStudio 5 realtime PCR machine (Thermo Fisher Scientific, Waltham, MA, USA). […] The temperature was raised with a step rate of 3°C/min. […]
Parameter: dTm. Scope: all listed entries.

| Molecule | U | dTm |
| --- | --- | --- |
| O=C(Nc1cccc(-c2c[nH]c3ncnc(N4CCOCC4)c23)c1)C1(C(=O)Nc2cccc3c2CCC3)CC1 [Compound 11] | K | 3.94 |
| Cc1cc(NC(=O)C2(C(=O)Nc3cccc(-c4c[nH]c5ncnc(N6CCOCC6)c45)c3)CC2)ccc1F [Compound 20] | K | 10.86 |
| Cc1ccc(NC(=O)C2(C(=O)Nc3cccc(-c4c[nH]c5ncnc(N6CCOCC6)c45)c3)CC2)cc1 [Compound 14] | K | 5.15 |
| CN[C@@H]1C[C@H]2O[C@@](C)([C@@H]1OC)n1c3ccccc3c3c4c(c5c6ccccc6n2c5c31)C(=O)NC4 [Staurosporine] | K | 4.52 |
| Cc1cc(NC(=O)C2(C(=O)Nc3ccc(F)cc3)CC2)cc(-c2c[nH]c3ncnc(N4CCOCC4)c23)c1 [Compound 6] | K | 4.54 |

* * *

Parameter: dTm. Scope: all listed entries.
Target entity: ~100 representative kinases (Homo sapiens, UniProt P78368)
Construct: Recombinant protein kinase domains with a concentration of 2 μM
Sequence (P78368 whole entry, the tested form may be a part): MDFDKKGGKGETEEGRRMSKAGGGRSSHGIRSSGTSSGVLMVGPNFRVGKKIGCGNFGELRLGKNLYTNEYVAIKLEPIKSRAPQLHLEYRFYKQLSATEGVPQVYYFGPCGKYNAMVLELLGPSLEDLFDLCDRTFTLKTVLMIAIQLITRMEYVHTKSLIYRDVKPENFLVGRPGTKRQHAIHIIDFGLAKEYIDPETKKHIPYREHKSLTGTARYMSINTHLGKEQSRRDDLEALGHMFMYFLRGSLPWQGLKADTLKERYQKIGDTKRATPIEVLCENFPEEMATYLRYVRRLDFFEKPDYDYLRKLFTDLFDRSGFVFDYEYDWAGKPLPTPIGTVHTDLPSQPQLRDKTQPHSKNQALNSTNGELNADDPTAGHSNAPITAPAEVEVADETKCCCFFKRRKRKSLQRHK
Assay notes: DSF 100 kinase selectivity screen;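 note: compound tested at 20 µM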
Format: binding
Test parameters: Protein CSNK1G2; average of three replicates

| Compound string | Target entity | dTm (K) |
| --- | --- | --- |
| O=C(Nc1ccccc1)C1(C(=O)Nc2cccc(-c3c[nH]c4ncnc(N5CCOCC5)c34)c2)CC1 | ~100 representative kinases (Homo sapiens, UniProt P78368) | 0.39 |
| Cc1cc(NC(=O)C2(C(=O)Nc3cccc(-c4c[nH]c5ncnc(N6CCOCC6)c45)c3)CC2)ccc1F | ~100 representative kinases (Homo sapiens, UniProt P78368) | 0.39 |
| O=C(Nc1ccc(F)cc1)C1(C(=O)Nc2cccc(-c3c[nH]c4ncnc(N5CCOCC5)c34)c2)CC1 | ~100 representative kinases (Homo sapiens, UniProt P78368) | 0.45 |
| O=C(Nc1cccc(-c2c[nH]c3ncnc(N4CCOCC4)c23)c1)C1(C(=O)Nc2ccc(F)cc2F)CC1 | ~100 representative kinases (Homo sapiens, UniProt P78368) | 0.54 |
| O=C(Nc1cccc(-c2c[nH]c3ncnc(N4CCOCC4)c23)c1)c1cccn(-c2ccc(F)cc2)c1=O | ~100 representative kinases (Homo sapiens, UniProt P78368) | 0.40 |
| Cc1cc(F)ccc1NC(=O)C1(C(=O)Nc2cccc(-c3c[nH]c4ncnc(N5CCOCC5)c34)c2)CC1 | ~100 representative kinases (Homo sapiens, UniProt P78368) | 0.62 |
| COc1cc(NC(=O)C2(C(=O)Nc3cccc(-c4c[nH]c5ncnc(N6CCOCC6)c45)c3)CC2)ccc1F | ~100 representative kinases (Homo sapiens, UniProt P78368) | 0.57 |

src = paper PMC12136037
